For each entry below, report its k2 value.
targetSystem: Caspase-9 (UniProt P55211)
Sequence (P55211 whole entry): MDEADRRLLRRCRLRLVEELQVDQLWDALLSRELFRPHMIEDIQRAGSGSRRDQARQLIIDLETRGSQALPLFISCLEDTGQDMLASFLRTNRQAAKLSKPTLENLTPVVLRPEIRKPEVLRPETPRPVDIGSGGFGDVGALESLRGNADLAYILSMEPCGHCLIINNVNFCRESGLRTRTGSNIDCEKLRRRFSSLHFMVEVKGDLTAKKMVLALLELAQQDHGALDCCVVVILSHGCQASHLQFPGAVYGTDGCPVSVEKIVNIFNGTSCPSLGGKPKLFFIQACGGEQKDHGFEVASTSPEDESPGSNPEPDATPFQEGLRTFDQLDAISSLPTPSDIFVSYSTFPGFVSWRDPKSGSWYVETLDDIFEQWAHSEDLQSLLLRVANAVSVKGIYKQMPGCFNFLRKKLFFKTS
testMethodNotes: cell-based or functional assay
Numbered stars: 1 amine (or outer) side, 2 acyl side, 3 side chain; on linkers, the order of the positions; unused ones are H or OH. Square brackets hold non-standard residues; d marks the D form. * marks the point of attachment. AAsp = aza-Asp, O=C(N(CC(=O)[*:3])N[*:1])[*:2]; CH═CH‑CON(CH3)CH2Ph = CN(Cc1ccccc1)C(=O)/C=C/*; CH:CH‑COOEt = CCOC(=O)/C=C/*; Cbz = O=C(OCc1ccccc1)*
# unit: M⁻¹ s⁻¹ | format: bare number

### Prompt Need k2 of Cbz-VEV[AAsp]-{CH:CH‑COOEt} (SMILES CCOC(=O)/C=C/C(=O)N(CC(=O)O)NC(=O)[C@@H](NC(=O)[C@H](CCC(=O)O)NC(=O)[C@@H](NC(=O)OCc1ccccc1)C(C)C)C(C)C) [Cbz-Val-Glu-Val-AAsp-CH═CH-COOEt] , thanks.
### Response 340

### Prompt // next record Cbz-IET[AAsp]-{CH═CH‑CON(CH3)CH2Ph} (SMILES CC[C@H](C)[C@H](NC(=O)OCc1ccccc1)C(=O)N[C@@H](CCC(=O)O)C(=O)N[C@H](C(=O)NN(CC(=O)O)C(=O)/C=C/C(=O)N(C)Cc1ccccc1)[C@@H](C)O) [Cbz-Ile-Glu-Thr-AAsp-CH═CH-CON(CH3)CH2Ph]
### Response 845
